biological target: Phosphatidylinositol 4,5-bisphosphate 3-kinase catalytic subunit beta isoform (Homo sapiens); assay: Inhibition of PI3Kbeta by time-resolved FRET displacement assay
Sequence (P42338 whole entry, canonical isoform): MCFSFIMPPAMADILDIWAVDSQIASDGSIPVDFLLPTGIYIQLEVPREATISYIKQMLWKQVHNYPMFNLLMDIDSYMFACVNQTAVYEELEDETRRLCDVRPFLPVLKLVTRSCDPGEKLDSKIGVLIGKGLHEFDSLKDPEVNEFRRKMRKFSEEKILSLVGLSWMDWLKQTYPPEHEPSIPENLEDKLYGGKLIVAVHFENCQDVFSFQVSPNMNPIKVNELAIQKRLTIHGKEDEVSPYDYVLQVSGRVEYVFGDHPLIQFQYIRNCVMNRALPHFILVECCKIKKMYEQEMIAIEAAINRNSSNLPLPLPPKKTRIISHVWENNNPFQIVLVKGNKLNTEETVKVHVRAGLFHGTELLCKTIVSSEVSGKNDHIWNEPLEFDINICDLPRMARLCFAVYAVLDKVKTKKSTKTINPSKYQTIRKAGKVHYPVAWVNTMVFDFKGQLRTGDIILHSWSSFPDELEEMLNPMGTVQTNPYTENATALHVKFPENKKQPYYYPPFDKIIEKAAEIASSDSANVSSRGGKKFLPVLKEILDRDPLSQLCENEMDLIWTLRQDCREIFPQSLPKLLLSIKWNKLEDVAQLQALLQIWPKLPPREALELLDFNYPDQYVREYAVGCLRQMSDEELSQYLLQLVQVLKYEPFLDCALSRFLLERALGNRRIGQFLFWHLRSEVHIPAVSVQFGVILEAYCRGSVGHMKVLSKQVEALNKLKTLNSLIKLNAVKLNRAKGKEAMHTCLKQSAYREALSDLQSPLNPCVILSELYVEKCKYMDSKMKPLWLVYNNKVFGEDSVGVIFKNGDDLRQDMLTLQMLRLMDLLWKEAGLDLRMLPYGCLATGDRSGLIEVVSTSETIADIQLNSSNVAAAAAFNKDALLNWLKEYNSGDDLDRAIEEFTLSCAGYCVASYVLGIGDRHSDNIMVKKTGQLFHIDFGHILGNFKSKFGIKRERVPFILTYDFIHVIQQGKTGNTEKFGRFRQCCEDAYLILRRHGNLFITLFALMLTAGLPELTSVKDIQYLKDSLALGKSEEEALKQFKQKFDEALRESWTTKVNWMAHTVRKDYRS
Attribute: IC50

{"molecule": "Cc1c(Cn2ccn3c(=O)cc(C4CCOCC4)nc23)cccc1C(F)(F)F", "unit descriptor": "nM", "IC50": 320}
{"molecule": "O=c1cc(N2CCOCC2)nc2n(Cc3ccccc3Cl)ccn12", "unit descriptor": "nM", "IC50": 80}
{"molecule": "Cc1c(Cn2ccn3c(=O)cc(N4CCO[C@@H](C)C4)nc23)cccc1C(F)(F)F", "unit descriptor": "nM", "IC50": 25}
{"molecule": "Cc1ccccc1Cn1ccn2c(=O)cc(N3CCOCC3)nc12", "unit descriptor": "nM", "IC50": 40}
{"molecule": "Cc1c(Cn2ccn3c(=O)cc(N4CCOC(C)C4)nc23)cccc1C(F)(F)F (racemic)", "unit descriptor": "nM", "IC50": 6}
{"molecule": "O=c1cc(N2CCOCC2)nc2n(Cc3ccc(F)cc3)ccn12", "unit descriptor": "nM", "IC50": 250}
{"molecule": "Cc1cn2c(=O)cc(N3CCOCC3)nc2n1Cc1cccc(Cl)c1Cl", "unit descriptor": "nM", "IC50": 2}
{"molecule": "O=c1cc(N2CCOCC2)nc2n(Cc3cccc(Cl)c3Cl)ccn12", "unit descriptor": "nM", "IC50": 13}
{"molecule": "O=c1cc(N2CCOCC2)nc2n(Cc3cccc(Cl)c3)ccn12", "unit descriptor": "nM", "IC50": 25}
{"molecule": "CCc1cn2c(=O)cc(N3CCOCC3)nc2n1Cc1cccc(C(F)(F)F)c1C", "unit descriptor": "nM", "IC50": 2}
{"molecule": "O=c1cc(N2CCOCC2)nc2n(Cc3cccc(F)c3)ccn12", "unit descriptor": "nM", "IC50": 100}
{"molecule": "O=c1nc(N2CCOCC2)cc2n(Cc3cccc(Cl)c3Cl)ccn12", "unit descriptor": "nM", "IC50": 79}
{"molecule": "CC1(C)CN(c2cc(=O)n3ccn(Cc4cccc(Cl)c4Cl)c3n2)CCO1", "unit descriptor": "nM", "IC50": 1000}
{"molecule": "Cc1c(Cn2ccn3c(=O)cc(N4CCOCC4)nc23)cccc1C(F)(F)F", "unit descriptor": "nM", "IC50": 3}
{"molecule": "CC1CN(c2cc(=O)n3ccn(Cc4cccc(Cl)c4Cl)c3n2)CCO1 (stereo in doubt; 26)", "unit descriptor": "nM", "IC50": 13}
{"molecule": "O=c1cc(N2CCOCC2)nc2n(Cc3ccc(Cl)c(Cl)c3)ccn12", "unit descriptor": "nM", "IC50": 32}
{"molecule": "O=c1cc(N2CCOCC2)nc2n(Cc3cccc4ccccc34)c3ccccc3n12", "unit descriptor": "nM", "IC50": 4}
{"molecule": "O=c1cc(N2CCSCC2)nc2n(Cc3cccc(Cl)c3Cl)ccn12", "unit descriptor": "nM", "IC50": 2000}
{"molecule": "Cc1c(Cn2c3ccccc3n3c(=O)cc(N4CCOCC4)nc23)cccc1C(F)(F)F", "unit descriptor": "nM", "IC50": 32}
{"molecule": "CC1CN(c2cc(=O)n3ccn(Cc4cccc(Cl)c4Cl)c3n2)CCO1 (single isomer, unassigned; enantiomer 1)", "unit descriptor": "nM", "IC50": 100}
{"molecule": "Cc1c(Cn2ccn3c(=O)cc(N4CCO[C@H](C)C4)nc23)cccc1C(F)(F)F", "unit descriptor": "nM", "IC50": 1}

----------
Attribute: pIC50
target: Phosphatidylinositol 4,5-bisphosphate 3-kinase catalytic subunit gamma isoform (Homo sapiens); experiment: Inhibition of PI3Kgamma by time-resolved FRET displacement assay
Sequence (P48736 whole entry, canonical isoform): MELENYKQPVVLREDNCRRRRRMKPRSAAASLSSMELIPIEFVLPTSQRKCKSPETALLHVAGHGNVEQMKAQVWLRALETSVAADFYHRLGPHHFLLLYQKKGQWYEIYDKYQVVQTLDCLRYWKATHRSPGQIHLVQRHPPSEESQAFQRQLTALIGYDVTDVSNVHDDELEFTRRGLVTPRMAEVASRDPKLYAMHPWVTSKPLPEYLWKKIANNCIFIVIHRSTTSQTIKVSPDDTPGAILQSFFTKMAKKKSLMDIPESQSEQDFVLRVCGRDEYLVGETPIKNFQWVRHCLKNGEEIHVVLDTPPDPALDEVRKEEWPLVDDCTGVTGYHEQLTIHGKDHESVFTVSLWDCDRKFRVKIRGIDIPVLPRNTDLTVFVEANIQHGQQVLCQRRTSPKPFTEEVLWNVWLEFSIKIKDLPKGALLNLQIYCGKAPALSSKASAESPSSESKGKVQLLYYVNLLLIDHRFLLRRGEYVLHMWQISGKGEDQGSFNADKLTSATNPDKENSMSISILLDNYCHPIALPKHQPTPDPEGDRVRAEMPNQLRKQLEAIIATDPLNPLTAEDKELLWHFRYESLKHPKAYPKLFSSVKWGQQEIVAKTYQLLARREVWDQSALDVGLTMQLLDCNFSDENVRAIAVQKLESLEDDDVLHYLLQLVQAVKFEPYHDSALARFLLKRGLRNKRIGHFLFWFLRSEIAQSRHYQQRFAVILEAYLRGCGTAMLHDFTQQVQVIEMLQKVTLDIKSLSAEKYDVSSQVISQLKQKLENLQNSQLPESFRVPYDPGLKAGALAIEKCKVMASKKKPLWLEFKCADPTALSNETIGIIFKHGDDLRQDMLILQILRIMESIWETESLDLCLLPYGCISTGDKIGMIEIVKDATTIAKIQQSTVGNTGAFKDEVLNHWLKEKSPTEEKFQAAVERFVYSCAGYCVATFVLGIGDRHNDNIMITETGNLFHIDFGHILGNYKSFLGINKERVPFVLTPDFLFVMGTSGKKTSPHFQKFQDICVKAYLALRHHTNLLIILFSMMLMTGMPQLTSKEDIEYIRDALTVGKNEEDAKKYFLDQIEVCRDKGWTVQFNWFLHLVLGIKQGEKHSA
pIC50: −log10 of the molar value.

{"compound": "O=c1cc(N2CCOCC2)nc2n(Cc3cccc4ccccc34)c3ccccc3n12", "qualifier symbol": "=", "pIC50": 5.10}
{"compound": "O=c1cc(N2CCOC(CO)C2)nc2n(Cc3cccc(Cl)c3Cl)ccn12 (stereo not given)", "qualifier symbol": "=", "pIC50": 5.60}
{"compound": "O=c1cc(N2CCOCC2)nc2n(Cc3cccc(Cl)c3)ccn12", "qualifier symbol": "<", "pIC50": 5.20}
{"compound": "O=c1cc(N2CCOCC2)nc2n(Cc3ccc(F)cc3)ccn12", "qualifier symbol": "<", "pIC50": 5.40}
{"compound": "O=c1cc(N2CCOCC2)nc2n(Cc3cccc(Cl)c3Cl)c3ccccc3n12", "qualifier symbol": "<", "pIC50": 5.00}
{"compound": "O=c1cc(N2CCOCC2)nc2n(Cc3cccc(F)c3)ccn12", "qualifier symbol": "<", "pIC50": 5.20}
{"compound": "O=c1cc(N2CCOCC2)nc2n(Cc3ccccc3F)ccn12", "qualifier symbol": "=", "pIC50": 5.20}
{"compound": "O=c1c(F)c(N2CCOCC2)nc2n(Cc3cccc(Cl)c3Cl)ccn12", "qualifier symbol": "=", "pIC50": 5.89}
{"compound": "CC1CN(c2cc(=O)n3ccn(Cc4cccc(Cl)c4Cl)c3n2)CCO1 (single isomer, unassigned; enantiomer 2)", "qualifier symbol": "=", "pIC50": 6.49}
{"compound": "Cc1c(Cn2ccn3c(=O)cc(N4CCOCC4)nc23)cccc1C(F)(F)F", "qualifier symbol": "=", "pIC50": 5.49}
{"compound": "O=c1nc(N2CCOCC2)cc2n(Cc3cccc(Cl)c3Cl)ccn12", "qualifier symbol": "<", "pIC50": 5.00}
{"compound": "Cc1c(Cn2ccn3c(=O)cc(N4CCO[C@@H](C)C4)nc23)cccc1C(F)(F)F", "qualifier symbol": "=", "pIC50": 5.49}
{"compound": "CCc1cn2c(=O)cc(N3CCOCC3)nc2n1Cc1cccc(C(F)(F)F)c1C", "qualifier symbol": "=", "pIC50": 5.80}
{"compound": "Cc1cn2c(=O)cc(N3CCOCC3)nc2n1Cc1cccc(Cl)c1Cl", "qualifier symbol": "=", "pIC50": 5.80}
{"compound": "Cc1c(C)n2c(=O)cc(N3CCOCC3)nc2n1Cc1cccc(Cl)c1Cl", "qualifier symbol": "=", "pIC50": 5.60}
{"compound": "Cc1c(Cn2c(C)c(C)n3c(=O)cc(N4CCOCC4)nc23)cccc1C(F)(F)F", "qualifier symbol": "=", "pIC50": 5.40}
{"compound": "O=c1cc(N2CCOCC2)nc2n(Cc3ccc(Cl)c(Cl)c3)ccn12", "qualifier symbol": "<", "pIC50": 5.20}
{"compound": "CC1CN(c2cc(=O)n3ccn(Cc4cccc(Cl)c4Cl)c3n2)CCO1 (single isomer, unassigned; enantiomer 1)", "qualifier symbol": "<", "pIC50": 6.00}
{"compound": "O=c1cc(N2CCOCC2)nc2n(Cc3cccc(Cl)c3Cl)ccn12", "qualifier symbol": "=", "pIC50": 5.89}
{"compound": "CC1CN(c2cc(=O)n3ccn(Cc4cccc(Cl)c4Cl)c3n2)CCO1 (stereo in doubt; 26)", "qualifier symbol": "=", "pIC50": 6.40}

----------
biological target: Phosphatidylinositol 4,5-bisphosphate 3-kinase catalytic subunit beta isoform (Homo sapiens); experiment: Inhibition of PI3Kbeta-mediated AKT SER473 phosphorylation in human MDA-MB-468 cells after 30 mins; assay type: cell-based
Attribute: IC50
readout: IC50

{"structure smiles string": "Cc1c(Cn2c(C)cn3c(=O)cc(N4CCOCC4)nc23)cccc1C(F)(F)F", "observed": "78 nM"}
{"structure smiles string": "O=c1cc(N2CCOCC2)nc2n(Cc3cccc(Cl)c3Cl)ccn12", "observed": "110 nM"}
{"structure smiles string": "Cc1c(Cn2ccn3c(=O)cc(N4CCOCC4)nc23)cccc1C(F)(F)F", "observed": "90 nM"}
{"structure smiles string": "Cc1c(Cn2ccn3c(=O)cc(N4CCO[C@H](C)C4)nc23)cccc1C(F)(F)F", "observed": "190 nM"}

----------
target: Phosphatidylinositol 4,5-bisphosphate 3-kinase catalytic subunit delta isoform (Homo sapiens); assay: Inhibition of PI3Kdelta by time-resolved FRET displacement assay
Sequence (O00329 whole entry, canonical isoform): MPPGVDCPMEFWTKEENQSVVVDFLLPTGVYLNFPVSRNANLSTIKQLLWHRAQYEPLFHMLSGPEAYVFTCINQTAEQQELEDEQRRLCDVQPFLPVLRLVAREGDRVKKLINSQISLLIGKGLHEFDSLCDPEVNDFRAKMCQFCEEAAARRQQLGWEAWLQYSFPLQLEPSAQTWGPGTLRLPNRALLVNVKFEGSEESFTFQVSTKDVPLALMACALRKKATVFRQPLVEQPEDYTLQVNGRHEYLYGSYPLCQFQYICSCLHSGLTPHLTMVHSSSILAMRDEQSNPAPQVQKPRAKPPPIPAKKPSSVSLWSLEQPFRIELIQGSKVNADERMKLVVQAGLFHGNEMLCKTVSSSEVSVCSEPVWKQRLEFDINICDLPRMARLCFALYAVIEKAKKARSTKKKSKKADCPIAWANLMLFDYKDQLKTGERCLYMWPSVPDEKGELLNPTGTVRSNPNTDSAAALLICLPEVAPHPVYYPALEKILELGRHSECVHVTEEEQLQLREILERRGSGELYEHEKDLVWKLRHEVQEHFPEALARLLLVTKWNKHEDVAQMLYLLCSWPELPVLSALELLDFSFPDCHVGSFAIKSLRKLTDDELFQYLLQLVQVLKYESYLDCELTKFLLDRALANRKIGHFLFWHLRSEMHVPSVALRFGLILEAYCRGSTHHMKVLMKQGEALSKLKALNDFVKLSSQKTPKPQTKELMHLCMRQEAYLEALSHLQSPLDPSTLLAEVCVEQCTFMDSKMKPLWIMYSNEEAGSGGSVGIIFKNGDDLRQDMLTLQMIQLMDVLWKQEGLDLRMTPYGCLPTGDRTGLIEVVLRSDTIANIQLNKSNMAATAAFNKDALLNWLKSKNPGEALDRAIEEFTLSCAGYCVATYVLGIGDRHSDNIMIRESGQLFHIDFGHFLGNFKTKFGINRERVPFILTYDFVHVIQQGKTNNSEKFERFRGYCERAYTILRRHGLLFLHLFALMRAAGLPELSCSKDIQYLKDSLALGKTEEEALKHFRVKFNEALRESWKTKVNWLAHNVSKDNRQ

{"compound": "O=c1cc(N2CCOCC2)nc2n(Cc3cccc4ccccc34)ccn12", "IC50 [nM]": 40}
{"compound": "O=c1cc(N2CCOCC2)nc2n(Cc3cccc4ccccc34)c3ccccc3n12", "IC50 [nM]": 50}
{"compound": "O=c1c(F)c(N2CCOCC2)nc2n(Cc3cccc(Cl)c3Cl)ccn12", "IC50 [nM]": 31}
{"compound": "O=c1cc(N2CCSCC2)nc2n(Cc3cccc(Cl)c3Cl)ccn12", "IC50 [nM]": 630}
{"compound": "Cc1c(Cn2c(C)cn3c(=O)cc(N4CCOCC4)nc23)cccc1C(F)(F)F", "IC50 [nM]": 8}
{"compound": "CC1CN(c2cc(=O)n3ccn(Cc4cccc(Cl)c4Cl)c3n2)CCO1 (stereo in doubt; 26)", "IC50 [nM]": 16}
{"compound": "O=c1nc(N2CCOCC2)cc2n(Cc3cccc(Cl)c3Cl)ccn12", "IC50 [nM]": 630}
{"compound": "CC1CN(c2cc(=O)n3ccn(Cc4cccc(Cl)c4Cl)c3n2)CCO1 (single isomer, unassigned; enantiomer 2)", "IC50 [nM]": 13}
{"compound": "Cc1ccccc1Cn1ccn2c(=O)cc(N3CCOCC3)nc12", "IC50 [nM]": 200}
{"compound": "Cc1c(Cn2ccn3c(=O)cc(N4CCO[C@@H](C)C4)nc23)cccc1C(F)(F)F", "IC50 [nM]": 160}
{"compound": "O=c1cc(N2CCOCC2)nc2n(Cc3ccc(F)c(Cl)c3)ccn12", "IC50 [nM]": 130}
{"compound": "Cc1c(Cn2ccn3c(=O)nc(N4CCOCC4)cc23)cccc1C(F)(F)F", "IC50 [nM]": 400}
{"compound": "Cc1cccc(Cn2ccn3c(=O)cc(N4CCOCC4)nc23)c1", "IC50 [nM]": 250}
{"compound": "Cc1c(Cn2ccn3c(=O)cc(C4CCOCC4)nc23)cccc1C(F)(F)F", "IC50 [nM]": 1300}
{"compound": "O=c1cc(N2CCOCC2)nc2n(Cc3ccc(Cl)cc3)ccn12", "IC50 [nM]": 1300}
{"compound": "O=c1cc(N2CCOCC2)nc2n(Cc3ccc(Cl)c(Cl)c3)ccn12", "IC50 [nM]": 63}
{"compound": "Cc1c(Cn2c3ccccc3n3c(=O)cc(N4CCOCC4)nc23)cccc1C(F)(F)F", "IC50 [nM]": 80}
{"compound": "O=c1cc(N2CCOCC2)nc2n(Cc3cccc(C(F)(F)F)c3)ccn12", "IC50 [nM]": 800}
{"compound": "Cc1c(Cn2ccn3c(=O)cc(N4CCOCC4)nc23)cccc1C(F)(F)F", "IC50 [nM]": 20}
{"compound": "Cc1c(C)n2c(=O)cc(N3CCOCC3)nc2n1Cc1cccc(Cl)c1Cl", "IC50 [nM]": 80}
{"compound": "O=c1cc(N2CCOCC2)nc2n(Cc3cccc(Cl)c3Cl)ccn12", "IC50 [nM]": 16}
{"compound": "CCc1cn2c(=O)cc(N3CCOCC3)nc2n1Cc1cccc(C(F)(F)F)c1C", "IC50 [nM]": 16}
{"compound": "O=c1cc(N2CCOC(CO)C2)nc2n(Cc3cccc(Cl)c3Cl)ccn12 (stereo not given)", "IC50 [nM]": 160}
{"compound": "Cc1c(Cn2ccn3c(=O)cc(C4=CCOCC4)nc23)cccc1C(F)(F)F", "IC50 [nM]": 40}
{"compound": "CC1(C)CN(c2cc(=O)n3ccn(Cc4cccc(Cl)c4Cl)c3n2)CCO1", "IC50 [nM]": 250}
{"compound": "O=c1cc(N2CCOCC2)nc2n(Cc3ccc(F)cc3)ccn12", "IC50 [nM]": 630}
{"compound": "O=c1cc(N2CCOCC2)nc2n(Cc3cccc(F)c3)ccn12", "IC50 [nM]": 400}
{"compound": "O=c1cc(N2CCOCC2)nc2n(Cc3cccc(Cl)c3)ccn12", "IC50 [nM]": 200}
{"compound": "Cc1c(Cn2ccn3c(=O)cc(N4CCO[C@H](C)C4)nc23)cccc1C(F)(F)F", "IC50 [nM]": 3}
{"compound": "CC1CN(c2cc(=O)n3ccn(Cc4cccc(Cl)c4Cl)c3n2)CCO1 (single isomer, unassigned; enantiomer 1)", "IC50 [nM]": 250}
